assay: yeast display, Sf9 membrane polyspecificity reagent, FACS + sequencing; frameworks hold sequencing errors
readout.kind: polyreactivity (PSR sort gate)

residue.codes	result
QVQLVESGGGLVQAGGSLRLSCAASGSTFLLYAMGWYRPAPGKERELVATISWGGDGTYYADSVKGRFTISRDNAKNTVYLHLNSLKPEDSAVYYCAAYSYFGYYWDGQLPYRLPYDYWGQGTQVTLSS	low polyreactivity
QVQLVESGGGIVQAGGSLRLSCAASGIIFYGYAMGWYRQAPGKERELVAVITSGGSTNYADSVKGRFTISRDNAKNTVYLQMNSLKPEDTAVYYCNAGYVSPDYDSWGQGTQVTVSS	high polyreactivity
QVQLVESGGGLVQAGGSLRLSCAASGSILLVYAMGWYRQAPGKERELVATITWTDGSTYYADSVKGRFTISRDNAKNTVYLQMNSLKPEDTAVYYCNAGASVNSPLVAEYYYWGQGTQVTVSS	low polyreactivity
QVQLVESGGGLVQAGGSLRLSCAASGFISYTYMGWYRQAPGKERELVAGITGSGGSTYYADSVKGRFTISRDNAKNTVYLQMNSLKPEDTAVYYCAAERPRRSPDGLNYWGQGTQVTVSS	high polyreactivity
QVQLVESGGGLVQAGGSLRLSCAASGSTFERYVMGWYRQRLGKKGSWLPVLNHNGGSTYYADSVKGRFTISRDNAKNTVYLQMNSLKPEDTAVYYCAASFRTVLDFGYWGQGTQVTVSS	low polyreactivity

For this sequence ( `QVHLVESGGGLVQAGGSRRLSCAASGITYRFYTMGWYRQAPGKEREFVAAITYGVGRTDYADSVKGRFTISRDNAKNTVYLQMNSLNPEDTAVYYCAATWGYGYDYWGQGTQVTVSS` ), measured polyreactivity (PSR sort gate) is high polyreactivity

Given item `QVQLVESWAGVVQAGGSLRLSCAASGSIFRNAMGWYRQAPGKERELVAGIRWSYGSTNYADSVKGRFTISRDNAKNSVYLQMNSLKPEDTAVYYCAKGAYYARRMYFWGQGTQVTVSS` , the value recorded as its polyreactivity (PSR sort gate) is low polyreactivity

Reported polyreactivity (PSR sort gate) ( `QVQLVESGGGLVQAGGSLRLSCAASGIIFRGNAMGWYRQAPGKERELVAAMSKSGGRTYYADSVKGRFTISRDNAKNTVYLQMNSLKPEDTAVYYCAARRSTSYPAGNDYWGQGTQVTVSS` ) = high polyreactivity

Reported polyreactivity (PSR sort gate) of `QFQLVESGGGLVQAGGSLRLSCAASGSIFKYYVMGWYRQAPGNERELVATITSDGGTNYADSVKGRFTISRDNAKNTVYLQMNSLKPEDTAVYYCNAASRRGSRKQAKYDYWGQGTQVTVSS` : low polyreactivity

Value of measured polyreactivity (PSR sort gate) for the entry `QVQLVESGGGLVQAGGRLRLSSAASGRIFASNAMGWYRQAPGKERELVARIDSGGITNYADSVKGRFTISRDNAKNTVYFQMNSLKPEDTGVYYCAKSVGWWSPPLGVYWVQGTQVTVSS` : low polyreactivity

Please fill in: polyreactivity (PSR sort gate) reported for `QVQLVESGGGLVQAGGSLRLSCAASGSIYDWYSMGWNIQAPGKERELVAAISSGDSTYYADSVKGRFTISRDNAKNTVYLQMNSLKPEDTAVYYCAAVTKLSGIRYNYWGQGTQVTVSS` = low polyreactivity

* * *

assay: yeast display, Sf9 membrane polyspecificity reagent, FACS + sequencing; frameworks hold sequencing errors
readout.kind: polyreactivity (PSR sort gate)

Study these solved cases before continuing.
residue.codes	polyreactivity (PSR sort gate)
QVQLVESGGGILQAGGSLRLSCAASGITFVVYAMGCYRQAPGKERELVDSITYSGGSTYYADSVKGRFTISRDNAKNTVYLQMISLKPEDTAFYYCNADGYSIYYLPYSDYDAYDYWGQGTQVTVSS	low polyreactivity
QVQLVESGGGLVQAGGSLRLSCAASGSIFPSYAMGWYRQAPGKERELVAAISSSGGSTYYADSVKGRFTISRDNAKNTVYLQMNSLKPEDTAVYYCATRYRRWSTVVQDDYWGQGTQVTVSS	low polyreactivity
QVQLEESGGGLVQAGGSLRLTCAASGFIFDDNAMGWYRQAPGKERELVAAISQGAGRTYYADSVKGRFTISRDNAKNTVYLQMNSLKPEDTAVYYCNSGRPKYWYGSKYDYWGQGTQVTVSS	low polyreactivity
QVQLQESGGGLVQAGGSLRPSCAASGNIFVPFKMGWYRLAPGKERELVASINRGSTTNYADSVKGRFTISRDNAKNTVYLQMISLKPEDTAVYYCAAIAYPDIPTYLDYDSDYFYWDQGTQVTVSS	high polyreactivity

Moving on to the next sequence.
Just so you know, measured polyreactivity (PSR sort gate) for `QVQLVESGGGLVQAGGSLRLSCAASGSTFRLYAMGWYRQAPGKERELVAAISSRGGSTYYADSVKGRFTISRDNAKNTVYLQMNSLKPEDTAVYYCATDYITPSSEGDYWGQGTQVTVTS` came out at high polyreactivity

* * *

assay: yeast display, Sf9 membrane polyspecificity reagent, FACS + sequencing; frameworks hold sequencing errors
readout.kind: polyreactivity (PSR sort gate)

residue.codes	polyreactivity (PSR sort gate)
QVQLVESGGGLVQAGGILRLSCAASGSTSYIYAMGWYRQAPGKERELVAAITWRTGRTYYADSVKGRFTISRDNAKNTVYLQMNSLKPEDTAVYYCAATYYLSFAVKMYYWGQGTQVTVSS	high polyreactivity
QVQLVESGGGLVQAGGSLRLSCAASGRILSYYAMGWYRQAPGKETELVATISASGGSTYYADSVKGRFTISRDNAKNTVYLQMNSLKPEDTAVYYCAAARVPAYYLRYLYRTTYDYWGQGTQVTVSS	high polyreactivity
QVQLVESGGGLVQAGGSLRLSCAASGSIFCSYAMGWYRPAPGKERELVAAITQRGGRTYYADSVKGRFTISRENAKNTVYLQMNSLKPEDTAVYYCAAKNRISRPSPYDYWGQGTQVTVSS	high polyreactivity
QVQLVESGGGLVQAGGSLRLSCAASGFIFTFYAMGWYRQAPGKEREFVASIDWGDGSTYYADSVKGRFTISRDNAKNTVYLQMNSLKPEDTAVYYCATDVYFLSSEYWGQGTQVTVSS	low polyreactivity
QVQLVETGGGLVQAGGSLRLSCAASGITFVYYAMGWYRQAPGKERELVPSISSADNTNYADSVKGRFTISRDNAKNTVYLQMNSLKPEDTAVYYCAADFCWHLRHDSTGGYWGQGTQVTVSS	low polyreactivity
QVQLVESGGGLVQAGGSLRLSCAASGSIFQRYTMGWYRQAPGKERELVARISGRGGSTYYADSVKGRFTISRDNAKNTVYLQMKSLKPEDTAVYYCAADTGRYLDSNYWGQGTQVTVSS	high polyreactivity
QVQLVESGGGLVQAGGSLRLSCAASGRIFVRNAMGWYRQAPGKERELVAAISRSGGSTYYADSVKGRFTISRDNAKNTVYLQMNSLKPEDTAVYYCNKGFNYGGWFKKYGYWGQGTQVTVSS	high polyreactivity
QVQLVESGGGLVQAGGSLSLSCAASGSTFSRYGMGGYRQAPGKERELVAAISYSGGGTYYADSVKGRFTISRDNAKNTVYLQMNSQKREDNAVYYCNVEYPKRANLSDYWGQGTQVTVSS	high polyreactivity

Note to self: polyreactivity (PSR sort gate) recorded for `QVQLVESGGGLVQAGVSLRLSCAASGSTFGWYAMGWYRQAPGKERELVAAISASGGSTYYADSVKGRFTISRDNAKNNVYLQMNSLKPEDTAVYYCAVRAWKFLTRYDYWGQGTKVTVSS` was high polyreactivity

The sequence listed as `QVRLVESGGGLVQAGGSLRLSCADSGSTFTTYAIGWYRQEPGKERELVAAISSGGDTKYADSVKGRFTISRDNAKNTVYLQMNSLKPEDTAVYYWNVVSFRYYYKYGYCGQGTQVTVSS` shows polyreactivity (PSR sort gate) equal to high polyreactivity

Given item `QVQLVESGGGLVQAGGSLRLSCAASGLIFFTYAMGWYRQAPGKERELVAAITGRGGRTYYADSVKGRFTISRDNAKNTVYLQMNSLKPEDTAVYYCNAEYRYYQKTPGRYTNVEYDYWGQGTQVTVSS` , the value recorded as its polyreactivity (PSR sort gate) is low polyreactivity

* * *

experiment: yeast display, Sf9 membrane polyspecificity reagent, FACS + sequencing; frameworks hold sequencing errors

residue.codes	polyreactivity (PSR sort gate)
QVQLVESGGGLDQAGGSLRLSCAASGSTLGYNVMGWYRQAPGKERELVAAISGDGSTNYADSVKGRFTISRDNAKNTVYLQMNSLKPEDTAVYYCAARPGWFAGYEYWGQGTQVTVSS	low polyreactivity
QVQLVESVGGIVQAGGSLRLSCAASGSIINWYAMGWYRQAPGKERELVAAISSSGSTNYADSVKGRFTISRDNAKNTVYLQMNSLKPEDTAVYYCNADEYYLNNYNYGYWGQGTQVTVSS	low polyreactivity

* * *

assay: yeast display, Sf9 membrane polyspecificity reagent, FACS + sequencing; frameworks hold sequencing errors
readout.kind: polyreactivity (PSR sort gate)

Illustrative cases are given below, each with its answer.
residue.codes	result
QVQLVESGGGLVQAGGSLRLSCAASGFIFYYYTMGWYRPAPGKERELVAAISRGGGSTYYADSVKGRFTISRDNAKNTVYLQMNSLKPEDTAVYYCALTDRRLGAHQGDYWGQGTQVTVSS	high polyreactivity
QVQLVESGGGLVQAGGSLRLSCAASGRIIGHNAMGWYRQAPGKERELVAAISSRGGSTFYADSVKGRFTISRDNAKNTVYLQKNSLKPEDTAVYYCNALGVGHSGFTKFSRYYYWGQGTQVTVSS	high polyreactivity
QVQLQESGGGQVQAGGSLRLSCAASGSIYDDTYMGWYRQAPGKERELVATIDSGSTTNYADSVIGRITISRDNAKNTVYLQMNSLKPEDTAVYYCAAADSHIDYFDYWGQGTQVTVSS	low polyreactivity
QVQLVYSGGGLVQAGGSLRLSCAASGISFSQYAMGWYRQAPGKERELVASISSGGRTNYADSVKGRFTISRDNAKNTVYLQLNSLTPEDTAVYYCAAEQWGWYWYDYWGQGTQVTVSS	high polyreactivity
QVQLVESGGGLVQAGGSLRLSCAASGFTFKSNAMGWYRQAPGKERELVAAISGSGGRTYYADSVKGRYTISRDTAKYTVYLQMNSLKPEDTAVYYCAADYPVRSYDYWGQGTQVTVSS	low polyreactivity
QVQLVESGGGLVQAGGRLRLSCAASGTFRRNAMGWYRQAPGKERELVAAIRWSGGITYYADSVKGRFTISRDNAKNTVYLQMNSLKPEDTADYYCSGQRYYGFGKTYYYWGQGTQVTVSS	high polyreactivity

What the record says about `QVQLVESGGGLVQAGGSLRLSCAASGYTFYANAMGWYRQATGKEREFVASITWSGGSTYYADSVKGRFTISRDNAKNTVYLQMNSLKPEDTAVYYCAAESWFKYDYWGQGTQVTVSS` : polyreactivity (PSR sort gate) is low polyreactivity

Please fill in: polyreactivity (PSR sort gate) reported for `QDQLVESGGGLVQAGGSLRLSCAASGFTFSRYAMGWYRQAPGKERELVAAINYSGGSTYYADSVKGRFTISRDNAKNTVYLQMNSLKPEDTAVYYCATGGTKPAYKGHYYWGQGTQVTVSS` = low polyreactivity

Measured polyreactivity (PSR sort gate), `QGQLVESGGGLVQAGGSLRLSCAASAFIFDDNTMGWYRQAPGKERELGAAISYSAGSTYYADSVKGRFTISRDNAKNTVYLQMNSLKPEDTAVYSCAAQHYWVTSYLSSYDYWGQGTQVTLSS` : low polyreactivity

The recorded polyreactivity (PSR sort gate) for `QVQLVESGGGLVQAGGSLRLSCAAYGRIFDAYAMGWYRQAPGKERELVAAITQSGGSTFYADSVKGRFTNSRDNAKNTVYLQMNSLKPEDTAVYDSNTGLSGRRYGFGVSFGMDYWGQGTQVTVSS` is low polyreactivity

The sequence listed as `QVKLVESGGCLVQAGGSLRLSCAASGRTIGYYGMGWYRQAPGKARELVAAITGSGGSTYYADSVKGRFTISRDNSKNTVYLQMNILIPEDTAVYYCAATYLSRWTLYDYWGQGTQVTVSS` has a reported polyreactivity (PSR sort gate) of high polyreactivity
